# time by which plasma (trough) concentrations seemed to reach steady state values compiled below
- experimental.protocol: Plasma pharmacokinetics of dabrafenib, its metabolites and trametinib
- Assay type: in vivo, Japanese patients
- study.conditions: repeat dosing of 150 mg dabrafenib b.i.d. and 2 mg trametinib q.d.

Worked cases, answers included:
In [3]: df
Out[3]:
                              sample_smiles    result
0  CC(=O)Nc1cccc(-n2c(=O)n(C3CC3)c(=O)c3c(Nc4ccc(I)cc4F)n(C)c(=O)c(C)c32)c1  ≤ 3 week
1  CC(C)(C(=O)O)c1nc(-c2cccc(NS(=O)(=O)c3c(F)cccc3F)c2F)c(-c2ccnc(N)n2)s1  ≤ 3 week
2  CC(C)(C)c1nc(-c2cccc(NS(=O)(=O)c3c(F)cccc3F)c2F)c(-c2ccnc(N)n2)s1  ≤ 3 week
3  CC(C)(CO)c1nc(-c2cccc(NS(=O)(=O)c3c(F)cccc3F)c2F)c(-c2ccnc(N)n2)s1  ≤ 3 week

Q: time by which plasma (trough) concentrations seemed to reach steady state for CC(C)c1nc(-c2cccc(NS(=O)(=O)c3c(F)cccc3F)c2F)c(-c2ccnc(N)n2)s1 ?
Ans: ≤ 3 week
